- method.description: Decrease in Wistar rat liver mitochondrial membrane fluidity assessed as rotational correlation times of spin probe at 0.15 uM by ESR
- Assay type: ADME, mitochondria, Mitochondria

{"columns": ["smiles.code", "Activity [×10⁻¹⁰ s]"],
 "data": [
  ["Cc1cc2c(c(O)c1-c1c(C)cc3c(c1O)/C(=C/NCCS(=O)(=O)[O-])C(=O)C(O)=C3C(C)C)/C(=C/NCCS(=O)(=O)[O-])C(=O)C(O)=C2C(C)C.[Na+].[Na+]", 32.1]
]}
